# System: CAF#7 (primary prostate cancer-associated fibroblasts of myCAF-like type)
# assayProcedure: drug sensitivity score (DSS2, normalised partial AUC of dose-response, 72 h CellTiter-Glo viability) (DSS (dimensionless)); higher = more sensitive (stronger growth inhibition / cytotoxicity); extreme values may be limits of the assay
measuredMetric: drug sensitivity score
// return just the number, without any unit appended

[ask] Item Nc1nc2cc(-c3ccc4ncc(C(=O)N5CCOCC5)n4c3)ccc2o1 [Serabelisib] (tested concentration range 1-10000 nM) has what recorded drug sensitivity score?
[reply] 3.4

[ask] Would you kindly share the measured drug sensitivity score for CC[C@H](Nc1ncnc2[nH]cnc12)c1nc2cccc(F)c2c(=O)n1-c1ccccc1 [Idelalisib] (tested concentration range 1-10000 nM) ?
[reply] 3.9

[ask] Which drug sensitivity score reading was recorded for the compound CCCCC(=O)OCC(=O)[C@]1(O)Cc2c(O)c3c(c(O)c2[C@@H](O[C@H]2C[C@H](NC(=O)C(F)(F)F)[C@H](O)[C@H](C)O2)C1)C(=O)c1c(OC)cccc1C3=O [Valrubicin] (tested concentration range 0.5-5000 nM) ?
[reply] 11.4

[ask] What does the data say about its drug sensitivity score? Entry: CC[C@@](C)(Nc1ccnc(-c2c[nH]c3ncccc23)n1)C(=O)NCC(F)(F)F [Decernotinib] (tested concentration range 1-10000 nM)
[reply] 0

[ask] What value of drug sensitivity score has been recorded for this entry: CN(C)C1CCN(C(=O)c2ccc(NC(=O)Nc3ccc(-c4nc(N5CCOCC5)nc(N5CCOCC5)n4)cc3)cc2)CC1 [Gedatolisib] (tested concentration range 0.1-1000 nM)
[reply] 13.1

* * *

# Test system: CAF#4 (primary prostate cancer-associated fibroblasts of iCAF-like type)
# assayProcedure: drug sensitivity score (DSS2, normalised partial AUC of dose-response, 72 h CellTiter-Glo viability) (DSS (dimensionless)); higher = more sensitive (stronger growth inhibition / cytotoxicity); extreme values may be limits of the assay
What drug sensitivity score was measured for each of the following?
Lab note: record just the number, no unit beside it.

[ask] Given the compound O=C(O)c1ccc(O)c2ncccc12 [IOX-1] (tested concentration range 10-100000 nM) , what is its reported drug sensitivity score?
[reply] 2.6

[ask] Which drug sensitivity score is listed for COc1cc(Nc2ncc(F)c(Nc3ccc4c(n3)N(COP(=O)(O)O)C(=O)C(C)(C)O4)n2)cc(OC)c1OC [Fostamatinib] (tested concentration range 0.2-2500 nM) ?
[reply] 5.3

[ask] Item under review: COC[C@H](NC(=O)c1cnc(C)s1)C(=O)N[C@@H](COC)C(=O)N[C@@H](Cc1ccccc1)C(=O)[C@@]1(C)CO1 [Oprozomib] (tested concentration range 0.2-2500 nM) . Reported drug sensitivity score?
[reply] 11.4

* * *

# System: CAF#7
# assayProcedure: drug sensitivity score (DSS2, normalised partial AUC of dose-response, 72 h CellTiter-Glo viability) (DSS (dimensionless)); higher = more sensitive (stronger growth inhibition / cytotoxicity); extreme values may be limits of the assay
Exercise: for every item that follows, state its recorded drug sensitivity score.
Please reply with the value in numeric form only.

[ask] Provide the documented drug sensitivity score with CAF#7 as the system for Clc1ccccc1C(c1ccccc1)(c1ccccc1)n1cccn1 [TRAM-34] (tested concentration range 0.1-1000 nM)
[reply] 0

[ask] Look up drug sensitivity score with CAF#7 for this molecule: CC(C)c1cc(-c2n[nH]c(=O)n2-c2ccc3c(ccn3C)c2)c(O)cc1O [Ganetespib] (tested concentration range 0.1-1000 nM)
[reply] 15.9

[ask] Value wanted: drug sensitivity score (CAF#7) of entry CS(=O)(=O)CCNCc1ccc(-c2ccc3ncnc(Nc4ccc(OCc5cccc(F)c5)c(Cl)c4)c3c2)o1 [Lapatinib] (tested concentration range 0.1-1000 nM)
[reply] 0

[ask] Look up drug sensitivity score with CAF#7 for this molecule: C[C@]1(c2nc3c(C(N)=O)cccc3[nH]2)CCCN1 [Veliparib] (tested concentration range 1-10000 nM)
[reply] 1.2

[ask] Give recorded drug sensitivity score with CAF#7 for the following molecule: COc1cc2c(cc1OCCCN1CCCC1)N=C(N)C21CCC1 [A-366] (tested concentration range 2.5-25000 nM)
[reply] 0

[ask] Given the entry Cc1ccc(-c2cc(C(F)(F)F)nn2-c2ccc(S(N)(=O)=O)cc2)cc1 [Celecoxib] (tested concentration range 1-10000 nM) , what drug sensitivity score was observed with CAF#7?
[reply] 0

[ask] Value wanted: drug sensitivity score (CAF#7) of entry CC/C(=C(\c1ccc(O)cc1)c1ccc(OCCN(C)C)cc1)c1ccccc1 [4-hydroxytamoxifen] (tested concentration range 1-10000 nM)
[reply] 1.6

[ask] Param readout= drug sensitivity score; system= CAF#7; entry= COc1cc2nccc(Oc3ccc(NC(=O)C4(C(=O)Nc5ccc(F)cc5)CC4)cc3)c2cc1OC [Cabozantinib] (tested concentration range 0.1-1000 nM) ; returns value.
[reply] 5.6

[ask] What drug sensitivity score appears in the records for this molecule with CAF#7? CN(C)C(=N)NC(=N)N [Metformin] (tested concentration range 10-100000 nM)
[reply] 0

[ask] Form entry - test system: CAF#7; read-out: drug sensitivity score; molecule: NC1(C(=O)N[C@@H](CCO)c2ccc(Cl)cc2)CCN(c2nc[nH]c3nccc2-3)CC1 [Capivasertib] (tested concentration range 1-10000 nM)
[reply] 2.4

[ask] Write down the reported drug sensitivity score of Cc1sc2c(c1C)C(c1ccc(Cl)cc1)=N[C@@H](CC(=O)NCCCCNC(=O)COc1cccc3c1C(=O)N(C1CCC(=O)NC1=O)C3=O)c1nnc(C)n1-2 (some centres not stated) [dBET1] (tested concentration range 1-10000 nM) , test system: CAF#7.
[reply] 14.2

[ask] Param readout= drug sensitivity score; system= CAF#7; entry= Cc1nc2cccc(N)c2c(=O)n1C1CCC(=O)NC1=O (configuration not stated) [Avadomide] (tested concentration range 1-10000 nM) ; returns value.
[reply] 0
